Measured MFI HisTag FITC in EGFR+ Population of individual entries
target: T1, nfP2X7 CAR 1; assay: flow cytometry, nfP2X7 CAR 1 T cells (EGFR+ gate), anti-His-FITC detection
T1 construct: CAR-positive cells gated by the co-expressed EGFR marker; also called nfP2X7 targeted CAR; nfP2X7 CAR on EGFR+ T cells
I'd appreciate a reply containing only the number, no unit.

Consider the worked cases shown below.
>  <binder>
CD19 BRIDGE variant B25 (Fab, V domains shown) VH: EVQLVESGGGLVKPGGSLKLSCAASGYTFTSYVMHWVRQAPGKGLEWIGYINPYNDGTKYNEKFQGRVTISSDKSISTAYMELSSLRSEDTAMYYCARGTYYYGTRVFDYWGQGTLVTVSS VL: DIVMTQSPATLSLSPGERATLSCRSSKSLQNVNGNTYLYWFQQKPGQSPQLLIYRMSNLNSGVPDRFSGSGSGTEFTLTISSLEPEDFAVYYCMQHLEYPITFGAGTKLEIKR

>  <reported>
2.28

$$$$
>  <binder>
CD19 BRIDGE variant B7 (Fab, V domains shown) VH: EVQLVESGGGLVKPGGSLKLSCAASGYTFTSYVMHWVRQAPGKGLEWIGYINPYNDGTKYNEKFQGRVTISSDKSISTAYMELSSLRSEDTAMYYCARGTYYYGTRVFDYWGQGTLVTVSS VL: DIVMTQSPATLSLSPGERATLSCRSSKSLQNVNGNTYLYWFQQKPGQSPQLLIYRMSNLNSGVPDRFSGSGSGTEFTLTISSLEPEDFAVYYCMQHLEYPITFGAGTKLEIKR

>  <reported>
2.22

$$$$
>  <binder>
CD19 BRIDGE variant B13 (Fab, V domains shown) VH: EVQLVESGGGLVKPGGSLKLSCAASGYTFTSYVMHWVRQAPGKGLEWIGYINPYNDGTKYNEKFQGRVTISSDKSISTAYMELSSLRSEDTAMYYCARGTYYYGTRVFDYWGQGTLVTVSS VL: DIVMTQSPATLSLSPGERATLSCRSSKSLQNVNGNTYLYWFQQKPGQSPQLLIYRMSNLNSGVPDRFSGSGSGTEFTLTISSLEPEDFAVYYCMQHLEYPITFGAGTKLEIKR

>  <reported>
2.13

$$$$

Suppose we examine the binder CD19 BRIDGE variant B14 (Fab, V domains shown) VH: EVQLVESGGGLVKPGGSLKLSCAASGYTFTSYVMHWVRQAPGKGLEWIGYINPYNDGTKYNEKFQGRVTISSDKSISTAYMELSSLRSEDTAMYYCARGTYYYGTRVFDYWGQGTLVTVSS VL: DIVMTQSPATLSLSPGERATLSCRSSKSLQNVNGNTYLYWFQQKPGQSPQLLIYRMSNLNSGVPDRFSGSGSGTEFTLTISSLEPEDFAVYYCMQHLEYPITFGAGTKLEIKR ; what MFI HisTag FITC in EGFR+ Population value has been reported?
2.41

# get_value(readout='MFI HisTag FITC in EGFR+ Population', item= CD19 BRIDGE variant B1 (Fab, V domains shown) VH: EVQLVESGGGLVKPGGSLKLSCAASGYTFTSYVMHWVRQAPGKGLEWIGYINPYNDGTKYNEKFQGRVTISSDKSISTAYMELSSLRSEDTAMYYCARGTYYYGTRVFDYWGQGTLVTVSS VL: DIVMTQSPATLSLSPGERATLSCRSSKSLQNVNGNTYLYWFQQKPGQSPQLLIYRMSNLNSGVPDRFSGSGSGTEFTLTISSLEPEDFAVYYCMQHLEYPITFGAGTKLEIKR )
2.1

I would be grateful if you could share the reported MFI HisTag FITC in EGFR+ Population for CD19 BRIDGE variant B20 (Fab, V domains shown) VH: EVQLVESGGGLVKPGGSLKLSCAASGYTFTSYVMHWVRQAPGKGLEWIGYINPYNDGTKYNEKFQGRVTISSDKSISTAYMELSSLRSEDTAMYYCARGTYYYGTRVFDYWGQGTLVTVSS VL: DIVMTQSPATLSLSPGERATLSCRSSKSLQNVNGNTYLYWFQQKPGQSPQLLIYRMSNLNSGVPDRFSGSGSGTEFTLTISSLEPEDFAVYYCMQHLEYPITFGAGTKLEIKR .
2.11

Record request: MFI HisTag FITC in EGFR+ Population value, item CD19 BRIDGE variant B19 (Fab, V domains shown) VH: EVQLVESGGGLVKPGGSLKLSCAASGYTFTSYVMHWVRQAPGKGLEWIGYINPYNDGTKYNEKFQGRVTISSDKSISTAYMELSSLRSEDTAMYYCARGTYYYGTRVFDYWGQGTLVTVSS VL: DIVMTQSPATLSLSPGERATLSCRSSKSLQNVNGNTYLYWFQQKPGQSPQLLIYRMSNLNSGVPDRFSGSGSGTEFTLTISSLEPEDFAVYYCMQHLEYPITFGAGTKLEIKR
2.16

Could you share which MFI HisTag FITC in EGFR+ Population value was measured for CD19 BRIDGE variant B2 (Fab, V domains shown) VH: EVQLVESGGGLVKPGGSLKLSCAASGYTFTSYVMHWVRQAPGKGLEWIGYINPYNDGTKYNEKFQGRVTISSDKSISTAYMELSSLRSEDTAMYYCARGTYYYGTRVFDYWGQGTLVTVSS VL: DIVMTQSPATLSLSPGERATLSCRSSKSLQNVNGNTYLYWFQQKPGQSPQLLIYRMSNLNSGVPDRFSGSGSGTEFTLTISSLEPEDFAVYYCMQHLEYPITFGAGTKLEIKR ?
2.07

Return reported MFI HisTag FITC in EGFR+ Population; argument: CD19 BRIDGE variant B3 (Fab, V domains shown) VH: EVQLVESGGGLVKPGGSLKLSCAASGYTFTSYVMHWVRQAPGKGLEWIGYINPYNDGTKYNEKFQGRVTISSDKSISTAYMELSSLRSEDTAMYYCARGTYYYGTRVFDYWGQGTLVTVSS VL: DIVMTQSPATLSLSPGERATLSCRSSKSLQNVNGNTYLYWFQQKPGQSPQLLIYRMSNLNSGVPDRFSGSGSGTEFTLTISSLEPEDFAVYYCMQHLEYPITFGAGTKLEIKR
2.05
